Sourced from patent US20210095028A1

Collected IL-2 secretion in T cell activation, EC50 values appear next to each entry.
Biological target: T1, human TIGIT over-expressed on cells (human, UniProt Q495A1 22-244)
T1 sequence: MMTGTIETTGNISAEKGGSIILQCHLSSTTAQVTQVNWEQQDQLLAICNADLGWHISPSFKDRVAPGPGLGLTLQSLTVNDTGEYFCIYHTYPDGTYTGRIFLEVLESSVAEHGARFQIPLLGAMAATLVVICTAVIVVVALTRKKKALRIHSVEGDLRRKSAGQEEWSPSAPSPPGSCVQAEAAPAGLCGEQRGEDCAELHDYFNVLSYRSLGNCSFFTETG
Assay: cell-based or functional assay
Reply with a number, then the unit it belongs to.

Below are worked cases with known answers.
1) 100C4E7D11 chimeric (antibody, V domains shown, also called 100C4 Chimeric) VH: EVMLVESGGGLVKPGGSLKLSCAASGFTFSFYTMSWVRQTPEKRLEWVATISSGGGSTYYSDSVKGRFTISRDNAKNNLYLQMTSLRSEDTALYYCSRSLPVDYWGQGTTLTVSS VL: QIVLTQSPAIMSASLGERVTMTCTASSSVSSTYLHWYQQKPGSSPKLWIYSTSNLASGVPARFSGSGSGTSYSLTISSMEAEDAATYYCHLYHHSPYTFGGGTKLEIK :: 2.14 nM
2) 64G1E9B4VH1_VL1.M1 (antibody, human IgG1, V domains shown, Humanized antibody, variable domains fused with the constant region of human IgG1; also called 64G1VH1_VL1.M1) VH: EVQLVQSGAEVKKPGSSVKVSCKASGYTFTEHVIHWVRQAPGQGLEWMGGFNPNHDGTIYNQIFRGRVTITADKSTSTAYMELSSLRSEDTAVYYCARAAKLLFAMDYWGQGTTVTVSS VL: DIQMTQSPSSLSASVGDRVTITCRASQHVSNAVVWYQQKPGKAPKLLIYSPSYRFTGVPSRFSGSGSGTDFTLTISSLQPEDFATYYCQQHYSTPWTFGGGTKVEIK :: 1.27 nM

In: Please give the measured IL-2 secretion in T cell activation, EC50 for this binder: 100C4E7D11VH1_VL1 (antibody, V domains shown, Humanized antibody, variable domains fused with the constant region of human IgG1; also called 100C4VH1_VL1) VH: EVQLVESGGGLVKPGGSLRLSCAASGFTFSFYTMSWVRQAPGKGLEWVSTISSGGGSTYYSDSVKGRFTISRDNAKNSLYLQMNSLRAEDTAVYYCARSLPVDYWGQGTTVTVSS VL: EIVLTQSPGTLSLSPGERATLSCTASSSVSSTYLHWYQQKPGQAPRLLIYSTSNLASGIPDRFSGSGSGTDFTLTISRLEPEDFAVYYCHLYHHSPYTFGGGTKVEIK
Out: 5.21 nM

In: Entry under review: 64G1E9B4VH1.M1_VL1.M1 (antibody, human IgG1, V domains shown, Humanized antibody, variable domains fused with the constant region of human IgG1; also called 64G1VH1.M1_VL1.M1) VH: EVQLVQSGAEVKKPGSSVKVSCKASGYTFTEHVIHWVRQAPGQGLEWMGGFNPNHGGTIYNQIFRGRVTITADKSTSTAYMELSSLRSEDTAVYYCARAAKLLFAMDYWGQGTTVTVSS VL: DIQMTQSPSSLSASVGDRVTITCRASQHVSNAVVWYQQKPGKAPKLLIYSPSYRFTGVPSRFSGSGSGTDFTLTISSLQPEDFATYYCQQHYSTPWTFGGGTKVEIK . Reported IL-2 secretion in T cell activation, EC50?
Out: 0.63 nM

In: GET /values?readout=IL-2 secretion in T cell activation, EC50&item= 64G1E9B4 chimeric (antibody, V domains shown, also called 64G1 Chimeric) VH: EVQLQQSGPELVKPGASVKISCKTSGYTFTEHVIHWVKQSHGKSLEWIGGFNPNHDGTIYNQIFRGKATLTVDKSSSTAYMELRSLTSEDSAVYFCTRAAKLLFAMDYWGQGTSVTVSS VL: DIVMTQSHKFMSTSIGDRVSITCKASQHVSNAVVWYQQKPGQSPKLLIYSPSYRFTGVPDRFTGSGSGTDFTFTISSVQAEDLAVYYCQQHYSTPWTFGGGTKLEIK
Out: 0.66 nM
